# Test system: MDAMB-231/U 251
# assayOverview: Anti-cancer screen (MTT), MDAMB-231/U 251 cells
# Type: cell-based
# particulars: MDAMB-231/U 251, 48 hours, concentrations tested 0.01-100 μM, read-out: LC50 (the source's name)
# Description: Experimental drugs are screened for anti-cancer activity in three cell lines for their GI50, TGI and LC50 values (using five concentrations for each compound). The cell lines are maintained in DMEM containing 10% fetal bovine serum. […] Percent growth is calculated for each compound's concentration relative to the control and zero measurement wells (T0; viability right before compound addition). […]

molecule: O=C(Cc1ccc(F)cc1)N1CCC(NCC(O)COc2cccc3[nH]c4ccccc4c23)CC1 (stereo not drawn)
assayedSystem: MDAMB-231/U 251
u: µM
qualifierSymbol: =
CC50: 77
--
molecule: OC(COc1cccc2[nH]c3ccccc3c12)CN1CCCC1 (stereo not drawn)
assayedSystem: MDAMB-231/U 251
u: µM
qualifierSymbol: >
CC50: 100
--
molecule: COc1cc(NCC(O)COc2cccc3[nH]c4ccccc4c23)cc(OC)c1OC (stereo not drawn)
assayedSystem: MDAMB-231/U 251
u: µM
qualifierSymbol: >
CC50: 100
--
molecule: OC(COc1cccc2[nH]c3ccccc3c12)CN1CCNCC1 (stereo not drawn)
assayedSystem: MDAMB-231/U 251
u: µM
qualifierSymbol: >
CC50: 100
--
molecule: Cc1cccc2sc(NC(=O)CN3CCN(CC(O)COc4cccc5[nH]c6ccccc6c45)CC3)nc12 (stereo not drawn)
assayedSystem: MDAMB-231/U 251
u: µM
qualifierSymbol: >
CC50: 100
--
molecule: OC(COc1cccc2[nH]c3ccccc3c12)CN1CCN(Cc2ccc(F)c(F)c2)CC1 (stereo not drawn)
assayedSystem: MDAMB-231/U 251
u: µM
qualifierSymbol: =
CC50: 10
--
molecule: Cc1csc(NC(=O)CN2CCN(CC(O)COc3cccc4[nH]c5ccccc5c34)CC2)n1 (stereo not drawn)
assayedSystem: MDAMB-231/U 251
u: µM
qualifierSymbol: >
CC50: 100
--
molecule: COc1ccc(CNCC(O)COc2cccc3[nH]c4ccccc4c23)c(OC)c1 (racemic)
assayedSystem: MDAMB-231/U 251
u: µM
qualifierSymbol: =
CC50: 60
--
molecule: OC(CNc1nc2ccccc2[nH]1)COc1cccc2[nH]c3ccccc3c12 (stereo not drawn)
assayedSystem: MDAMB-231/U 251
u: µM
qualifierSymbol: =
CC50: 85

* * *

# System: MDAMB-231/U 251
# assayOverview: Anti-cancer screen (MTT), MDAMB-231/U 251 cells
# Type: cell-based
# particulars: MDAMB-231/U 251, 48 hours, concentrations tested 0.01-100 μM
recordedMetric: log10 of GI50 (log10 of the value in µM)

compound: COc1cc(CN2CCN(CC(O)COc3cccc4[nH]c5ccccc5c34)CC2)cc(OC)c1 (stereo not shown) [Example 30]
log10 of GI50: 0.40
//
compound: COc1ccc(CNC[C@H](O)COc2cccc3[nH]c4ccccc4c23)c(OC)c1 [Example 25]
log10 of GI50: 1.11
//
compound: OC(COc1cccc2[nH]c3ccccc3c12)CN1CCc2sccc2C1 (stereo not shown) [Example 4]
log10 of GI50: 1.53
//
compound: Cc1cc(C)nc(NCC(O)COc2cccc3[nH]c4ccccc4c23)n1 (stereo not shown) [Example 15]
log10 of GI50: 0.90
//
compound: O=C(c1ccc([N+](=O)[O-])o1)N1CCN(CC(O)COc2cccc3[nH]c4ccccc4c23)CC1 (stereo not shown) [Example 35]
log10 of GI50: 0.48
//
compound: OC(CNc1nc2ccccc2[nH]1)COc1cccc2[nH]c3ccccc3c12 (stereo not shown) [Example 19]
log10 of GI50: 1.71
//
compound: COc1ccc(CNC[C@@H](O)COc2cccc3[nH]c4ccccc4c23)c(OC)c1 [Example 24]
log10 of GI50: 1.26
//
compound: COc1ccc(CNCC(O)COc2cccc3[nH]c4ccccc4c23)c(OC)c1 (racemic) [Example 1]
log10 of GI50: 0.70
//
compound: OC(COc1cccc2[nH]c3ccccc3c12)CN1CCN(Cc2ccc(F)c(F)c2)CC1 (stereo not shown) [Example 31]
log10 of GI50: 0.60
//
compound: OC(CNCc1ccccc1)COc1cccc2[nH]c3ccccc3c12 (stereo not shown) [Example 23]
log10 of GI50: 0.00
//
compound: Cc1cccc2sc(NC(=O)CN3CCN(CC(O)COc4cccc5[nH]c6ccccc6c45)CC3)nc12 (stereo not shown) [Example 59]
log10 of GI50: 1.67
//
compound: N#Cc1ccc(C(=O)N2CCC(NCC(O)COc3cccc4[nH]c5ccccc5c34)CC2)cn1 (stereo not shown) [Example 70]
log10 of GI50: 0.54
//
compound: OC(COc1cccc2[nH]c3ccccc3c12)CN1CCNCC1 (stereo not shown) [Example 3]
log10 of GI50: 1.74
//
compound: O=[N+]([O-])c1ccc(CN2CCN(CC(O)COc3cccc4[nH]c5ccccc5c34)CC2)o1 (stereo not shown) [Example 26]
log10 of GI50: 1.48
//
compound: COc1cc(NCC(O)COc2cccc3[nH]c4ccccc4c23)cc(OC)c1OC (stereo not shown) [Example 8]
log10 of GI50: 0.70
//
compound: O=[N+]([O-])c1ccc(CN2CCN(CC(O)COc3cccc4[nH]c5ccccc5c34)CC2)s1 (stereo not shown) [Example 27]
log10 of GI50: 0.45
//
compound: O=C(Cc1ccc(F)cc1)N1CCC(NCC(O)COc2cccc3[nH]c4ccccc4c23)CC1 (stereo not shown) [Example 66]
log10 of GI50: 1.18

* * *

# Test system: NCIH460, HCT116, MDAMB-231/U 251
# assayOverview: Anti-cancer screen, mean GI50 over the cell lines
# Assay type: cell-based
Binary label based on GI50 with cut-off 20 µM: below gives Criterion met, not below gives Criterion not met.

compound: COc1ccc(CNC[C@@H](O)COc2cccc3[nH]c4ccccc4c23)c(OC)c1
label: Criterion met
--
compound: O=[N+]([O-])c1ccc(CN2CCN(CC(O)COc3cccc4[nH]c5ccccc5c34)CC2)s1 (stereo not shown)
label: Criterion not met
--
compound: COc1ccc(CNCC(O)COc2cccc3[nH]c4ccccc4c23)c(OC)c1 (racemic)
label: Criterion met
--
compound: Cc1cc(C)nc(NCC(O)COc2cccc3[nH]c4ccccc4c23)n1 (stereo not shown)
label: Criterion met
--
compound: OC(CNc1nc2ccccc2[nH]1)COc1cccc2[nH]c3ccccc3c12 (stereo not shown)
label: Criterion not met
--
compound: Cc1csc(NC(=O)CN2CCN(CC(O)COc3cccc4[nH]c5ccccc5c34)CC2)n1 (stereo not shown)
label: Criterion not met
--
compound: OC(COc1cccc2[nH]c3ccccc3c12)CN1CCCC1 (stereo not shown)
label: Criterion met
--
compound: COc1cc(CN2CCN(CC(O)COc3cccc4[nH]c5ccccc5c34)CC2)cc(OC)c1 (stereo not shown)
label: Criterion met
--
compound: OC(COc1cccc2[nH]c3ccccc3c12)CN1CCN(Cc2ccc(F)c(F)c2)CC1 (stereo not shown)
label: Criterion not met
--
compound: OC(COc1cccc2[nH]c3ccccc3c12)CN1CCNCC1 (stereo not shown)
label: Criterion not met
--
compound: O=C(Cc1ccc(F)cc1)N1CCC(NCC(O)COc2cccc3[nH]c4ccccc4c23)CC1 (stereo not shown)
label: Criterion met
--
compound: OC(COc1cccc2[nH]c3ccccc3c12)CN1CCc2sccc2C1 (stereo not shown)
label: Criterion not met
--
compound: O=[N+]([O-])c1ccc(CN2CCN(CC(O)COc3cccc4[nH]c5ccccc5c34)CC2)o1 (stereo not shown)
label: Criterion not met
